molecular target: human PD-L1 / Human PD-1 (Homo sapiens (Human)); test: Enzyme-Linked Immunosorbent Assay (ELISA), PD-1/PD-L1 binding; details: Table 2; plate-coated human PD-L1, biotinylated human PD-1; read-out: ELISA IC50
Listing of entries alongside the reported IC50.
endpoint_name: IC50

| smiles_record | endpoint_name | result |
| --- | --- | --- |
| CC(C)(CNCc1cc(Cl)c(O[C@H]2CCc3c(-c4ccccc4)cccc32)cc1OCc1cncc(C#N)c1)C(=O)O | IC50 | 500 to 20000 nM |
| N#Cc1cncc(COc2cc(O[C@H]3CCc4c(-c5ccccc5F)cccc43)c(Cl)cc2CN2CC(F)C2)c1 | IC50 | 500 to 20000 nM |
| N#Cc1cncc(COc2cc(O[C@@H]3CCc4c(-c5ccccc5F)cccc43)c(Cl)cc2CN[C@@H](CO)C(=O)O)c1 | IC50 | < 100 nM |
| COc1cccc(-c2cccc3c2CC[C@@H]3Oc2cc(OCc3cncc(C#N)c3)c(CN3CCC(CO)CC3)cc2Cl)c1Cl | IC50 | 100 to 500 nM |
| COc1cccc(-c2cccc3c2CC[C@@H]3Oc2cc(OCc3cncc(C#N)c3)c(CNCCS(N)(=O)=O)cc2Cl)c1F | IC50 | 500 to 20000 nM |
| C[C@H](O)[C@@H](NCc1cc(Cl)c(O[C@H]2CCc3c(-c4ccccc4F)cccc32)cc1OCc1cncc(C#N)c1)C(=O)O | IC50 | < 100 nM |
| N#Cc1cncc(COc2cc(O[C@H]3CCc4c(-c5ccc6c(c5F)OCCO6)cccc43)c(Cl)cc2CN2CCC(O)CC2)c1 | IC50 | < 100 nM |
| N#Cc1cncc(COc2cc(O[C@H]3CCc4c(-c5ccccc5F)cccc43)c(Cl)cc2CN[C@@H](C(=O)O)c2ccccc2)c1 | IC50 | < 100 nM |
| N#Cc1cncc(COc2cc(O[C@H]3CCc4c(-c5ccc(F)cc5)cccc43)c(Cl)cc2CN[C@@H](CO)C(=O)O)c1 | IC50 | 100 to 500 nM |
| COc1cc(O[C@H]2CCc3c(-c4ccc5c(c4)OCCO5)cccc32)c(Cl)cc1CN1CC(O)C1 | IC50 | 500 to 20000 nM |
| N#Cc1cncc(COc2cc(O[C@H]3CCc4c(-c5ccccc5)cccc43)c(Cl)cc2CN[C@@H](CO)C(=O)O)c1 | IC50 | < 100 nM |
| C[C@H](NCc1cc(Cl)c(O[C@H]2CCc3c(-c4ccc5c(c4Cl)OCCO5)cccc32)cc1OCc1cncc(C#N)c1)C(=O)O | IC50 | 100 to 500 nM |
| COc1cccc(-c2cccc3c2CC[C@@H]3Oc2cc(OCc3cncc(C#N)c3)c(CN[C@H](CO)C(=O)O)cc2Cl)c1F | IC50 | < 100 nM |

###

target: human PD-L1 / Human PD-1 (Homo sapiens (Human), UniProt Q9NZQ7); assay: Enzyme-Linked Immunosorbent Assay (ELISA), PD-1/PD-L1 binding; details: Table 3; plate-coated human PD-L1, biotinylated human PD-1; read-out: ELISA IC50
Sequence (Q9NZQ7 19-239): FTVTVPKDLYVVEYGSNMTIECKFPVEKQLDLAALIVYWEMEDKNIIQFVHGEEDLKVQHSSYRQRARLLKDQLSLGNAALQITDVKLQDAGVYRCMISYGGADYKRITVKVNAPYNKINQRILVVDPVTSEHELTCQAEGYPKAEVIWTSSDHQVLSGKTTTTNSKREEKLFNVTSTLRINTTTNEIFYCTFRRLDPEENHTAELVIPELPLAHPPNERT

| compound | IC50 |
| --- | --- |
| N#Cc1cncc(COc2cc(O[C@H]3CCc4c(-c5ccc(CO)cc5)cccc43)c(Cl)cc2CN[C@@H](CO)C(=O)O)c1 [Example 3.123] | 500 to 20000 nM |
| N#Cc1cncc(COc2cc(O[C@H]3CCc4c(-c5ccccc5F)cccc43)c(Cl)cc2CNC(Cc2cccnc2)C(=O)O)c1 (stereo partly shown) [Example 3.094] | < 100 nM |
| NCCCC[C@H](NCc1cc(Cl)c(O[C@H]2CCc3c(-c4ccccc4F)cccc32)cc1OCc1cncc(C(=O)O)c1)C(=O)O [Example 3.023] | 100 to 500 nM |
| N#Cc1cncc(COc2cc(O[C@H]3CCc4c(-c5ccccc5F)cccc43)c(Cl)cc2CN2CC[C@H](C(=O)O)C2)c1 [Example 3.131] | < 100 nM |
| CC(C)c1nccn1CCCNCc1cc(Cl)c(O[C@H]2CCc3c(-c4ccccc4F)cccc32)cc1OCc1cncc(C#N)c1 [Example 3.090] | 100 to 500 nM |
| N#Cc1cncc(COc2cc(O[C@H]3CCc4c(-c5cc(F)c6c(c5)OCCO6)cccc43)c(Cl)cc2CN[C@@H](CO)C(=O)O)c1 [Example 3.017] | < 100 nM |
| N#Cc1cncc(COc2cc(O[C@H]3CCc4c(-c5ccccc5CO)cccc43)c(Cl)cc2CN[C@@H](CO)C(=O)O)c1 [Example 3.127] | < 100 nM |
| O=C(O)[C@H](CO)NCc1cc(Cl)c(O[C@H]2CCc3c(-c4ccc5c(c4F)OCCO5)cccc32)cc1OCc1cc(F)cc(F)c1 [Example 3.012] | 500 to 20000 nM |
| CC(C)[C@@H](NCc1cc(Cl)c(O[C@H]2CCc3c(-c4ccccc4F)cccc32)cc1OCc1cncc(C#N)c1)C(=O)O [Example 3.099] | 100 to 500 nM |
| O=C(O)[C@H](CO)NCc1cc(Cl)c(O[C@H]2CCc3c(-c4ccccc4F)cccc32)cc1OCc1cncc(Br)c1 [Example 3.100] | < 100 nM |
| CC(C)OC(=O)[C@H](CO)NCc1cc(Cl)c(O[C@H]2CCc3c(-c4ccc5c(c4F)OCCO5)cccc32)cc1OCc1cncc(C#N)c1 [Example 3.046] | 500 to 20000 nM |
| N#Cc1cncc(COc2cc(O[C@H]3CCc4c(-c5ccccc5F)cccc43)c(Cl)cc2CN2CC[C@@H](C(=O)O)C2)c1 [Example 3.132] | < 100 nM |
| C[C@@H](O)[C@H](NCc1cc(Cl)c(O[C@H]2CCc3c(-c4ccccc4F)cccc32)cc1OCc1cncc(C#N)c1)C(=O)OC(C)(C)C [Example 3.135] | 500 to 20000 nM |
